Data origin, for the record: paper PMC4303003

# Lookup of reported screen value keyed by entry
B1: wild type AcrB (Escherichia coli multidrug transporter AcrB) [E. coli] / itself (parent)
chain: MPNFFIDRPIFAWVIAIIIMLAGGLAILKLPVAQYPTIAPPAVTISASYPGADAKTVQDTVTQVIEQNMNGIDNLMYMSSNSDSTGTVQITLTFESGTDADIAQVQVQNKLQLAMPLLPQEVQQQGVSVEKSSSSFLMVVGVINTDGTMTQEDISDYVAANMKDAISRTSGVGDVQLFGSQYAMRIWMNPNELNKFQLTPVDVITAIKAQNAQVAAGQLGGTPPVKGQQLNASIIAQTRLTSTEEFGKILLKVNQDGSRVLLRDVAKIELGGENYDIIAEFNGQPASGLGIKLATGANALDTAAAIRAELAKMEPFFPSGLKIVYPYDTTPFVKISIHEVVKTLVEAIILVFLVMYLFLQNFRATLIPTIAVPVVLLGTFAVLAAFGFSINTLTMFGMVLAIGLLVDDAIVVVENVERVMAEEGLPPKEATRKSMGQIQGALVGIAMVLSAVFVPMAFFGGSTGAIYRQFSITIVSAMALSVLVALILTPALCATMLKPIAKGDHGEGKKGFFGWFNRMFEKSTHHYTDSVGGILRSTGRYLVLYLIIVVGMAYLFVRLPSSFLPDEDQGVFMTMVQLPAGATQERTQKVLNEVTHYYLTKEKNNVESVFAVNGFGFAGRGQNTGIAFVSLKDWADRPGEENKVEAITMRATRAFSQIKDAMVFAFNLPAIVELGTATGFDFELIDQAGLGHEKLTQARNQLLAEAAKHPDMLTSVRPNGLEDTPQFKIDIDQEKAQALGVSINDINTTLGAAWGGSYVNDFIDRGRVKKVYVMSEAKYRMLPDDIGDWYVRAADGQMVPFSAFSSSRWEYGSPRLERYNGLPSMEILGQAAPGKSTGEAMELMEQLASKLPTGVGYDWTGMSYQERLSGNQAPSLYAISLIVVFLCLAALYESWSIPFSVMLVVPLGVIGALLAATFRGLTNDVYFQVGLLTTIGLSAKNAILIVEFAKDLMDKEGKGLIEATLDAVRMRLRPILMTSLAFILGVMPLVISTGAGSGAQNAVGTGVMGGMVTATVLAIFFVPVFFVVVRRRFSRKNEDIEHSHTVDHH

Variants of: B1
Assay: BN-PAGE
Settings: with itself; read off a plot
// response body must contain only the number

| mutationAnnotation | screen value |
| --- | --- |
| chain 1 G257V P223G | 0.15 |

In: Request the reported screen value associated with chain 1 D256N P223G
Out: 0.41

In: Any idea what its screen value is? The variant is chain 1 D788K P223G
Out: 0.15

In: Param item = chain 1 M662I P223G ; retrieve measured screen value.
Out: 0.19

In: Name the reported screen value value associated with the variant chain 1 Q737L P223G
Out: 0.075

In: // lookup screen value for chain 1 E810K P223G
Out: 0.11
